# protocol-notes: Toxicity assessed as hemolytic activity in human erythrocytes at 6 uM after 30 mins
# Type: cell-based, Erythrocyte
# measurement-conditions: read-out: Activity
Exercise: state measured hemolysis at 0.5 h, 6 µM for each of the substances provided.
Please state the value followed by its unit.

Reported hemolysis at 0.5 h, 6 µM, substance H-FLPLIGRVLSGIL-NH2 [TEMPORIN A] : ____
4.5%

# query: hemolysis at 0.5 h, 6 µM of entry H-FVPWFSKFLGRIL-NH2
10%

GET /values?readout=hemolysis at 0.5 h, 6 µM&item= H-FLQLIGRVLSGIL-NH2 [GLN-TA, TEMPORIN A]
18%

Could you tell me which hemolysis at 0.5 h, 6 µM is on file for H-FVQWFSKFLGRIL-NH2 [TEMPORIN L] ?
48%

----------
# protocol-notes: Toxicity assessed as hemolytic activity in human erythrocytes at 12 uM after 30 mins
# Type: cell-based, Erythrocyte
# measurement-conditions: read-out: Activity
measurement-type: hemolysis at 0.5 h, 12 µM
Write down the value, and be sure its unit follows.

Which hemolysis at 0.5 h, 12 µM value belongs to H-FVPWFSKFLGRIL-NH2 ?
42%

Find the recorded hemolysis at 0.5 h, 12 µM belonging to H-FVQWFSKFLGRIL-NH2 [TEMPORIN L] and report it.
92%

Record request: hemolysis at 0.5 h, 12 µM value, item H-FLPLIGRVLSGIL-NH2 [TEMPORIN A]
6%

What hemolysis at 0.5 h, 12 µM value was documented for this substance, H-FLQLIGRVLSGIL-NH2 [GLN-TA, TEMPORIN A] ?
70%

----------
# protocol-notes: Toxicity assessed as hemolytic activity in human erythrocytes at 3 uM after 30 mins
# Assay type: cell-based, Erythrocyte
# measurement-conditions: read-out: Activity
So I've got a bunch of substances here, and I need their hemolysis at 0.5 h, 3 µM values.
Give your result in % as a bare value.

Using the record for H-FVPWFSKFLGRIL-NH2 , report its hemolysis at 0.5 h, 3 µM.
6

Could you tell me which hemolysis at 0.5 h, 3 µM is on file for H-FVQWFSKFLGRIL-NH2 [TEMPORIN L] ?
13

// returns reported hemolysis at 0.5 h, 3 µM for input H-FLPLIGRVLSGIL-NH2 [TEMPORIN A]
3

# lookup: hemolysis at 0.5 h, 3 µM of H-FLQLIGRVLSGIL-NH2 [GLN-TA, TEMPORIN A]
9

----------
Task for the reader: assign each of the following substances its reported hemolysis at 0.5 h, 24 µM.
# protocol-notes: Toxicity assessed as hemolytic activity in human erythrocytes at 24 uM after 30 mins
# Format: cell-based, Erythrocyte
# measurement-conditions: read-out: Activity
Give a bare numeral; the unit % is implied.

Could you tell me which hemolysis at 0.5 h, 24 µM is on file for H-FVQWFSKFLGRIL-NH2 [TEMPORIN L] ?
94

Entry H-FLQLIGRVLSGIL-NH2 [GLN-TA, TEMPORIN A] : reported hemolysis at 0.5 h, 24 µM = ?
92

GET /values?readout=hemolysis at 0.5 h, 24 µM&item= H-FVPWFSKFLGRIL-NH2
92

Which hemolysis at 0.5 h, 24 µM reading was recorded for the substance H-FLPLIGRVLSGIL-NH2 [TEMPORIN A] ?
28

----------
# Test system: Escherichia coli
# protocol-notes: Antimicrobial activity against Escherichia coli D21 after 18 to 20 hrs by micro-broth dilution method
# Format: functional
measurement-type: MIC (µM)
Output spec: scalar in µM, unitless text.

Which MIC value belongs to H-FVQWFSKFLGRIL-NH2 [TEMPORIN L] ?
12

Fill in: MIC of H-FVPWFSKFLGRIL-NH2 is ___
12

Cited source for all entries: ChEMBL document CHEMBL1144825
